- Test system: SW684
- protocol_text: relative viability vs DMSO control (72 h) (fraction); higher = more viable cells
- condition_details: 3.333 µM
// reported relative viability for each item listed
Write the value as a bare number.

Study these solved cases before continuing.
CO[C@H]1C[C@@H]2CC[C@@H](C)[C@@](O)(O2)C(=O)C(=O)N2CCCC[C@H]2C(=O)O[C@H]([C@H](C)C[C@@H]2CC[C@@H](OC(=O)C(C)(CO)CO)[C@H](OC)C2)CC(=O)[C@H](C)/C=C(\C)[C@@H](O)[C@@H](OC)C(=O)[C@H](C)C[C@H](C)/C=C/C=C/C=C/1C
0.767
Cc1cc2c(F)c(Oc3ncnn4cc(OC[C@@H](C)OC(=O)[C@H](C)N)c(C)c34)ccc2[nH]1 [Brivanib_alaninate]
1.13
O=C(c1ccc(F)c(F)c1Nc1ccc(I)cc1F)N1CC(O)([C@@H]2CCCCN2)C1
0.357
COc1cc2ncnc(Nc3ccc(F)c(Cl)c3)c2cc1OCCCN1CCOCC1
1.15
C=CC(=O)N1CCC(CNc2ncnc(N)c2-c2ccc(Oc3ccccc3)cc2)CC1
1.19

// moving on: another record for relative viability
**Q:** Would you kindly share the measured relative viability for CN(C)C(=O)c1cc2cnc(Nc3ccc(N4CCNCC4)cn3)nc2n1C1CCCC1 ?
**A:** 1.1

----------
- System: HT1080
- protocol_text: relative viability vs DMSO control (72 h) (fraction); higher = more viable cells
- condition_details: 0.04115 µM
// reported relative viability for each item listed

Study these solved cases before continuing.
COc1cc(N2CCC(N3CCN(C)CC3)CC2)ccc1Nc1ncc(Cl)c(Nc2ccccc2P(C)(C)=O)n1 [Brigatinib]
0.984
CNC(=O)c1cccc2cc(Oc3ccnc4cc(OCC5(N)CC5)c(OC)cc34)ccc12 [Lucitanib]
1.09
CN(C)C(=O)c1cc2cnc(Nc3ccc(N4CCNCC4)cn3)nc2n1C1CCCC1 [Ribociclib]
1.08
CC(=O)c1c(C)c2cnc(Nc3ccc(N4CCNCC4)cn3)nc2n(C2CCCC2)c1=O [Palbociclib]
1.12
C[C@@H]1CN(C(=O)c2ccc(NC(=O)c3cc(O[C@H](C)c4c(Cl)ccc(F)c4Cl)c(N)nn3)cc2)C[C@H](C)N1 [Ensartinib]
1

**Q:** Would you kindly share the measured relative viability for O=S(=O)(c1cccc2c(O)nccc12)N1CCCNCC1 [Hydroxyfasudil] ?
**A:** 1.1

**Q:** Would you kindly share the measured relative viability for C=CC(=O)N1CCC(CNc2ncnc(N)c2-c2ccc(Oc3ccccc3)cc2)CC1 [Evobrutinib] ?
**A:** 1.08

**Q:** Would you kindly share the measured relative viability for Cn1cnc2c(F)c(Nc3ccc(Br)cc3Cl)c(C(=O)NOCCO)cc21 [Selumetinib] ?
**A:** 0.855

**Q:** Would you kindly share the measured relative viability for CS(=O)(=O)CCNCc1ccc(-c2ccc3ncnc(Nc4ccc(OCc5cccc(F)c5)c(Cl)c4)c3c2)o1 [Lapatinib] ?
**A:** 1.04

**Q:** Would you kindly share the measured relative viability for COC(=O)c1ccc2c(c1)NC(=O)/C2=C(\Nc1ccc(N(C)C(=O)CN2CCN(C)CC2)cc1)c1ccccc1 [Nintedanib] ?
**A:** 1.07

----------
// reported relative viability for each item listed
- Tested on: SK-LMS-1
- protocol_text: relative viability vs DMSO control (72 h) (fraction); higher = more viable cells
- condition_details: 0.00152 µM
Write the value as a bare number.

Study these solved cases before continuing.
O=C(/C=C\n1cnc(-c2cc(C(F)(F)F)cc(C(F)(F)F)c2)n1)NNc1cnccn1 [Selinexor]
0.98
CNC(=O)c1c(C)oc2cc(Oc3ncnc4cc(OC)c(OC)cc34)ccc12
1.11
CN(C)C(=O)c1cc2cnc(Nc3ccc(N4CCNCC4)cn3)nc2n1C1CCCC1
1.12
CS(=O)(=O)CCNCc1ccc(-c2ccc3ncnc(Nc4ccc(OCc5cccc(F)c5)c(Cl)c4)c3c2)o1
1.08

// moving on: another record for relative viability
**Q:** Would you kindly share the measured relative viability for C#Cc1cccc(Nc2ncnc3cc4c(cc23)OCCOCCOCCO4)c1 ?
**A:** 1.07
